System: PEG-3
Assay: Peg3 promoter luciferase inhibitors, potency, dose response, cell-based, HeLa, CREF/GAPDH counter-screen panel (AID 624167)
Conditions: HeLa PEG-Prom luciferase reporter, overnight, CREF/GAPDH counter-screens, run 1, dose range 1, individual replicate IC50 per panel
# pIC50 listing for each entry below
// pIC50: -log10(molar conc.)

Take a look at these entries with their results.
Cc1ccc(C(=O)NCCc2cccs2)cc1 ... 5.40
CC(=O)NC(c1ccccc1)c1cc(Cl)c2cccnc2c1O (stereo unspecified) ... 5.20
O=C(CN1C(=O)c2ccccc2S1(=O)=O)c1ccc2c(c1)OCCO2 ... 6.14

Sure, the documented pIC50 for "O=C(Nc1ccc(CN2CCCCC2)cc1)Nc1ccc(Br)cc1Cl" is 4.69

Sure, the documented pIC50 for "Cc1ccc2nc(N(CCCN(C)C)C(=O)c3ccc4c(c3)CCCC4)sc2c1" is 4.66

Sure, the documented pIC50 for "CN(C)S(=O)(=O)c1cccc(NC(=O)CSc2nc3c(cc2C#N)C(=O)CC(C)(C)C3)c1" is 4.66

Sure, the documented pIC50 for "CCOc1ccc2nc(N(CCCN(C)C)C(=O)c3ccc(C(=O)c4ccccc4)cc3)sc2c1" is 4.69

Sure, the documented pIC50 for "COc1cccc(C(=O)c2sc(NC(C)C)nc2N)c1" is 4.78

Sure, the documented pIC50 for "O=c1c(Cl)c(N2CCCCC2)cnn1-c1nc2ccccc2[nH]1" is 5.52

---

Assay: Peg3 promoter luciferase inhibitors, potency, dose response, cell-based, HeLa, CREF/GAPDH counter-screen panel (AID 624167)
Details: CREF/GAPDH counter-screens; GAPDH; mean of runs
Active and inactive are the calls of the source.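 How the source made its calls: active means mean IC50 for reducing PEG3 promoter reporter signal at or below a set limit, with IC50 above the limit in both counter screens; inactive means the rest, including counter screen hits.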
Hi! Could you answer with just one of these? yes (1) (active), no (0) (inactive)

CCCC(=O)NC(c1ccc(C(C)C)cc1)c1ccc2cccnc2c1O (stereo unspecified) ... no (0)
O=C(N/N=C/c1ccc(Cl)c([N+](=O)[O-])c1)c1cc(-c2ccc3c4c(cccc24)CC3)n[nH]1 ... yes (1)
COCCCNC(=O)c1ccc(Cn2c(=O)c3ccccc3n(Cc3ccccc3C#N)c2=O)cc1 ... no (0)

input: Could you kindly confirm the outcome this assay logged for "C(=N\Nc1ccc2ccccc2n1)/c1ccc2c(c1)OCCO2" ?
output: yes (1)

input: Could you kindly confirm the outcome this assay logged for "Cc1oc(-c2ccc3c(c2)OCCO3)cc1C(=O)O" ?
output: yes (1)

input: Could you kindly confirm the outcome this assay logged for "O=[N+]([O-])c1ccc(S(=O)(=O)c2ccccc2)nc1" ?
output: no (0)

---

Tested on: PEG-3
Experiment: Peg3 promoter luciferase inhibitors, potency, dose response, cell-based, HeLa, CREF/GAPDH counter-screen panel (AID 624167)
Settings: HeLa PEG-Prom luciferase reporter, overnight, CREF/GAPDH counter-screens, run 1, dose range 1, individual replicate IC50 per panel
Lab note: cut-off is 10 µM. Strictly less in IC50 is Condition met. Exactly 10 µM or more is Condition not met.

Look over these answered cases.
COc1cccc2nc3c(C(=O)NCCN(C)C)cccc3cc12 ... Condition not met
CN(C)CC1CCC/C(=C\c2ccc(OC(=O)c3ccc(Cl)cc3)cc2)C1=O (centres undefined) ... Condition met
COc1ccc(C(NC(=O)C(C)C)c2ccc3cccnc3c2O)cc1 (centres undefined) ... Condition met
Cc1ccc2oc(/N=C(\N)NC(=O)C(C)(C)C)nc2c1 ... Condition met
COc1ccc(CNCCc2c(C)[nH]c3ccc(OC(F)(F)F)cc23)c(OC)c1 ... Condition not met

input: Is it true that IC50 reported for "O=C(CNc1ccccc1)N/N=C/c1c(O)ccc2ccccc12" is less than 10 µM?
output: Condition met

input: Is it true that IC50 reported for "CCOc1cccc(/C=N/NC(=S)Nc2cc(S(=O)(=O)N3CCOCC3)ccc2N2CCOCC2)c1O" is less than 10 µM?
output: Condition met

input: Is it true that IC50 reported for "CCCN1C=CC(=C2C(=O)c3ccccc3C2=O)C=C1" is less than 10 µM?
output: Condition met

---

Test system: Rat fibroblasts (CREF)
Assay: Peg3 promoter luciferase inhibitors, potency, dose response, cell-based, HeLa, CREF/GAPDH counter-screen panel (AID 624167)
Conditions: CREF/GAPDH counter-screens, mean of runs
The source made the active and inactive calls.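 Rule for the calls: active = mean IC50 for reducing PEG3 promoter reporter signal at or below a set limit, with IC50 above the limit in both counter screens; inactive = the rest, including counter screen hits.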
# IC50 listing for each entry below

CC1=CC2C(C(O)CC3(C)C2CC(C)C32OCOC23COCO3)C2(C)C/C(=C\O)C(=O)C=C12 (configuration not stated) ... 8.5 µM
Cc1cc(C)c(C)c(S(=O)(=O)N2CCN(C(=O)c3cc(=O)[nH]c4ccccc34)CC2)c1C ... 55.2 µM (inactive)
CCN1C=CC(=C2C(=O)c3ccccc3C2=O)C=C1 ... 0.85 µM
O=C(CCl)N1c2ccccc2Sc2ccc3ccccc3c21 ... 26.3 µM
O=C(Nc1nc2cc3c(cc2s1)OCCO3)C1=COCCO1 ... 0.924 µM

Sure, the documented IC50 for "Cc1ccc(C(=O)Nc2cnc3ccccc3c2)cc1" is 3.89 µM

Sure, the documented IC50 for "Cc1ccccc1OCC(=O)Nc1cccc(C(=O)O)c1" is 18.4 µM

Sure, the documented IC50 for "CCOc1ccc(-c2ccc(SC)nn2)cc1" is 0.473 µM

Sure, the documented IC50 for "CC(C)(C)c1ccc(Oc2ccc(N)cc2)cc1" is 74.7 µM (inactive)

Sure, the documented IC50 for "CC(C)(C)C(=O)Nc1ccc(NC(=O)c2ccco2)nc1" is 0.435 µM

Sure, the documented IC50 for "O=C(O)c1cccc(COc2ccc3c(c2)CCC3)c1" is 10.3 µM

Sure, the documented IC50 for "Cc1ccc(C(=O)Nc2ncc([N+](=O)[O-])s2)cc1" is 8.85 µM

---

# IC50 listing for each entry below
Tested on: PEG-3
Test: Peg3 promoter luciferase inhibitors, potency, dose response, cell-based, HeLa, CREF/GAPDH counter-screen panel (AID 624167)
Settings: HeLa PEG-Prom luciferase reporter, overnight, CREF/GAPDH counter-screens, run 1, dose range 1, individual replicate IC50 per panel
Your answer is read as µM, so omit the unit and give the number.

Take a look at these entries with their results.
Cc1cc(C=C2C(=O)c3ccccc3C2=O)c(C)n1-c1ccccc1 ... 39.6
CCOC(=O)c1c(SCCN2CCCCC2)n(-c2ccccc2)c(=S)n(-c2ccccc2)c1=O ... 10.1
CCC(C)Sc1ccc(-c2nc3ccccn3c2NCc2ccccc2)cc1OC (stereo unspecified) ... 38.3
CCOC(=O)c1cccc(Nc2nc(-c3cccnc3)nc3ccccc23)c1 ... 12.1
O=C1NC(=S)NC(=O)C1=Cc1cccn1-c1ccc(O)cc1 ... 18

Per the reported PEG-3 data, "O=C1CSC(=S)N1Cc1cccnc1" has IC50 of 28.3

Per the reported PEG-3 data, "c1ccc(CN=C(NCc2ccccc2)NCc2ccccc2)cc1" has IC50 of 23.4

Per the reported PEG-3 data, "O=C(CNC(=O)C(c1ccccc1)c1ccccc1)N/N=C/c1ccc(O)cc1O" has IC50 of 3.59

Per the reported PEG-3 data, "Cc1ccc(-n2cc(CNCCCn3ccnc3C)c(-c3ccc(F)cc3)n2)cc1" has IC50 of 15.5

Per the reported PEG-3 data, "Cc1cc(C)c(CN2CCN(CCCn3cnc(C(=O)Nc4ccc(C)c(C)c4)n3)CC2)c(C)c1" has IC50 of 19

---

Test system: PEG-3
Experiment: Peg3 promoter luciferase inhibitors, potency, dose response, cell-based, HeLa, CREF/GAPDH counter-screen panel (AID 624167)
Details: HeLa PEG-Prom luciferase reporter, overnight, CREF/GAPDH counter-screens, run 1, dose range 1, individual replicate IC50 per panel
observation.type: IC50 (µM)
Your answer is read as µM, so omit the unit and give the number.

Take a look at these entries with their results.
CCOc1cc(CNCCCN2CCOCC2)ccc1OCC(=O)Nc1cccc2ccccc12 ... 21.1
COc1ccc(C(NC(C)=O)c2ccc3cccnc3c2O)c(OC)c1 (stereo not given) ... 3.68
Cc1ccc(C(=O)Nc2cnc3ccccc3c2)cc1 ... 0.416
C=CCn1c(C)cc(C(=O)CN2C(=O)c3ccccc3S2(=O)=O)c1C ... 0.795
CN(C)CCNc1ncnc2c1ncn2[C@H]1CN(Cc2ccc(-c3ccccc3)cc2)C[C@@H](CO)O1 ... 30.7
CN1CCC(NC(=O)c2cc(-c3cccc(Br)c3)nc3ccccc23)CC1 ... 20.9
Oc1ccc(C[C@H]2CNCCN2CCc2cc(C(F)(F)F)cc(C(F)(F)F)c2)cc1 ... 26.7
CC1=CC(O)C(O)C2(C)C1CC1OC(=O)C(O)C3C(C)C(O)C4(O)OCC13C42 (stereo not given) ... 44.9

Sure, the documented IC50 for "O=C(/C=C/c1ccc(Cl)c([N+](=O)[O-])c1)c1ccc(O)cc1" is 8.19
